# Tested on: giant foxtail
# Protocol text: Test B pre-/postemergence herbicide test
# Type: in vivo, Setaria faberi
# Run parameters: Postemergence, 500 g ai/ha; visual rating after 13 to 15 days, scale 0 (no effect) to 100 (complete control)
Reported metric: Plant response rating, Foxtail, Giant
The response must contain the number and no unit.

Report Plant response rating, Foxtail, Giant, nothing else, for this compound: CCOC(=O)c1cc(NC(=O)c2cc(C(C)(C)C)nn2CC)ccc1OCC 30

For CCn1nc(C(C)(C)C)cc1C(=O)Nc1ccc(OC)c(C(=O)OC(C)C)c1 , write its Plant response rating, Foxtail, Giant. 30

Hello, please tell me recorded Plant response rating, Foxtail, Giant for this one: CCNC(=O)c1cccc(NC(=O)c2cc(C(C)(C)C)nn2CCF)c1 20

Query Plant response rating, Foxtail, Giant for CCn1nc(C(C)(C)C)cc1C(=O)Nc1cccc(C(=O)NCC(C)C)c1 30

Determine its reported Plant response rating, Foxtail, Giant: CCn1nc(C(C)(C)C)cc1C(=O)Nc1cccc(C(=O)NC2CC2)c1 30
